Data origin: paper PMC8511083

- Test system: panel of melanoma and breast cancer cell lines
- method-summary: Average growth inhibition in panel of melanoma and breast cancer cell lines
- Format: cell-based
- cond: Homo sapiens, read-out: Average IC50, average of results obtained in all six cell lines
value-type: pIC50
To interpret pIC50, take it as minus log10 of a concentration measured in moles per litre.

Exercise: Retrieve pIC50 measured for Oc1c(CN2CCCCC2)cc(Cn2ncc(-c3ccc(Br)cc3)n2)c2cccnc12 [Compound 12a] and print it.
Solution: 5.85

Exercise: Supply recorded pIC50 for Oc1c(CN2CCCC2)cc(COC2CCc3ccccc3C2)c2cccnc12 (centres unmarked) here.
Solution: 5.72

Exercise: Give a short answer stating reported pIC50 for COc1ccc(-c2cnn(Cc3cc(CN4CCCC4)c(O)c4ncccc34)n2)cc1 .
Solution: 5.70

Exercise: Using known records, supply pIC50 for Cc1ccc(-c2cc(COCc3ccc(C(C)C)cc3)c3cccnc3c2O)cc1 [Compound 19d]
Solution: 5.85

Exercise: Complete the entry with pIC50 for CC(C)c1ccc(COCc2cc(-c3ccc(C(F)(F)F)cc3)c(O)c3ncccc23)cc1 [Compound 19g]
Solution: 5.59

Exercise: Look up and state reported pIC50 for Cc1cccc(-c2cc(COCc3ccc(C(C)C)cc3)c3cccnc3c2O)c1 [Compound 19e]
Solution: 5.80

Exercise: Give the reported value of pIC50 for this record: CC(C)c1ccc(COCc2cc(-c3cncc4ccccc34)c(O)c3ncccc23)cc1 [Compound 19b]
Solution: 6.05

Exercise: Tell us which pIC50 value is on record for N#Cc1ccc(-c2cnn(Cc3cc(CN4CCCC4)c(O)c4ncccc34)n2)cc1
Solution: 5.48

Exercise: # return recorded pIC50 for entry COc1ccc(-c2cc(COCc3ccc(C(C)C)cc3)c3cccnc3c2O)cc1 [Compound 19f]
Solution: 5.85

Exercise: Report measured pIC50; entry is Oc1c(CN2CCCC2)cc(Cn2ncc(-c3cccc(Br)c3)n2)c2cccnc12
Solution: 5.77

Exercise: Write down pIC50 measured for item CCN(CC)Cc1cc(Cn2ncc(-c3ccc(C(F)(F)F)cc3)n2)c2cccnc2c1O [Compound 12d]
Solution: 5.51

Exercise: Consider the molecule Oc1c(CN2CCCC2)cc(COC2Cc3ccccc3C2)c2cccnc12 and give its recorded pIC50.
Solution: 5.57

Exercise: Identify the reported pIC50 for the following entry. Oc1c(CN2CCCC2)cc(Cn2ncc(-c3ccc(C(F)(F)F)cc3)n2)c2cccnc12
Solution: 5.62

Exercise: Using known records, supply pIC50 for Oc1c(CN2CCCC2)cc(Cn2ncc(-c3ccccc3Br)n2)c2cccnc12
Solution: 5.77
